valueType: melting point

Known melting point results, listed for orientation:
In [3]: df
Out[3]:
                            structuresmiles         result
0      O=C(NC1CCCCC1)c1c(O)c2ccccc2[nH]c1=O         221 °C
1            Nc1c(C(=O)O)c(=O)[nH]c2ccccc12       > 250 °C
2          C/C=C/c1cccc2c1C(N)=NS(=O)(=O)N2       > 260 °C
3             COC(=O)c1c(N)c2ccccc2[nH]c1=O         236 °C
4  CC(C)(COc1cccc2c1C(N)=NS(=O)(=O)N2)NC(=O)c1ccccc1  235 to 236 °C
5         NC1=NS(=O)(=O)Nc2cccc(OCC3CC3)c21  246 to 247 °C
6                N#Cc1c(Cl)c2ccccc2[nH]c1=O       > 250 °C

With those in mind, consider the next compound.
I would be grateful if you could share the reported melting point for `N#Cc1c(N)c2ccccc2[nH]c1=O` .
> 250 °C

Where do the numbers come from? From patent US8633186B2.
